System: Mus musculus
Assay: Analgesic activity in sc dosed Swiss-Webster mouse time of peak effect
Type: functional
Listing of entries alongside the reported Time.
The response must be a number in min with no trailing unit.

Could you tell me which Time is on file for `O=C(CBr)Nc1ccc(CCN2CC[C@]34CCCC[C@H]3[C@H]2Cc2ccc(O)cc24)cc1` ?
30

# Time lookup, item `CC(=O)Oc1ccc2c(c1)[C@@]13CCCC[C@H]1[C@@H](C2)N(CCCc1ccccc1N1C(=O)C=CC1=O)CC3`
30

Which value of Time has been reported for `CCOC(=O)/C=C\C(=O)Nc1cccc(CCN2CC[C@]34CCCC[C@H]3[C@H]2Cc2ccc(O)cc24)c1` in the records?
60

Give its Time value. Item: `CCOC(=O)/C=C/C(=O)Nc1cccc(CCN2CC[C@]34CCCC[C@H]3[C@H]2Cc2ccc(O)cc24)c1`
60

---

Here, each record is paired with measured Time data.
Test system: Mus musculus
Experiment: Analgesic activity in sc dosed Swiss-Webster mouse time of peak effect
Assay type: functional
Write the answer as a number in min, unit excluded.

Reference set, count: 3
CCOC(=O)/C=C/C(=O)Nc1ccc(CCN2CC[C@]34CCCC[C@H]3[C@H]2Cc2ccc(O)cc24)cc1    60
CCOC(=O)CCC(=O)Nc1ccc(CCN2CC[C@]34CCCC[C@H]3[C@H]2Cc2ccc(O)cc24)cc1    60
CCOC(=O)/C=C/C(=O)Nc1ccc(CCCN2CC[C@]34CCCC[C@H]3[C@H]2Cc2ccc(O)cc24)cc1    30

# Time lookup, item `O=C1C=CC(=O)N1c1cccc(CCN2CC[C@]34CCCC[C@H]3[C@H]2Cc2ccc(O)cc24)c1`
30

Would you mind telling me what Time value was observed for `O=C1C=CC(=O)N1c1ccc(CCN2CC[C@]34CCCC[C@H]3[C@H]2Cc2ccc(O)cc24)cc1` ?
30

Consider the compound `CCOC(=O)CCC(=O)Nc1ccc(CCCN2CC[C@]34CCCC[C@H]3[C@H]2Cc2ccc(O)cc24)cc1` and give its measured Time.
30

Field request: Time | item: `CCOC(=O)CCC(=O)Nc1cccc(CCCN2CC[C@]34CCCC[C@H]3[C@H]2Cc2ccc(O)cc24)c1`
30

Find the recorded Time belonging to Br.CC1C2Cc3ccc(O)cc3C1(C)CCN2CCc1ccccc1 (stereo unspecified) [PHENAZOCINE HYDROBROMIDE] and report it.
30

Record request: Time value, item `O=C(CBr)Nc1ccccc1CCN1CC[C@]23CCCC[C@H]2[C@H]1Cc1ccc(O)cc13`
30

Consider the compound `CC(=O)Oc1ccc2c(c1)[C@@]13CCCC[C@H]1[C@@H](C2)N(CCc1ccccc1N1C(=O)C=CC1=O)CC3` and give its measured Time.
30

---

System: Mus musculus
Assay: Analgesic activity in sc dosed Swiss-Webster mouse after 30 mins
Assay type: functional
Details: 0.5 h
endpoint_label: ED50 (mg/kg)
Note: unit mg/kg is implicit; provide only the numeric part.

Examples from the recorded data:
CCOC(=O)/C=C/C(=O)Nc1cccc(CCCN2CC[C@]34CCCC[C@H]3[C@H]2Cc2ccc(O)cc24)c1    76.5
CCOC(=O)CCC(=O)Nc1cccc(CCN2CC[C@]34CCCC[C@H]3[C@H]2Cc2ccc(O)cc24)c1    6
CCOC(=O)CCC(=O)Nc1ccc(CCN2CC[C@]34CCCC[C@H]3[C@H]2Cc2ccc(O)cc24)cc1    0.71

Let us examine a further case.
Quick one: ED50 of `O=C(CBr)Nc1ccc(CCN2CC[C@]34CCCC[C@H]3[C@H]2Cc2ccc(O)cc24)cc1` ?
0.13

---

Entries and their ED50
Test system: Mus musculus
Experiment: Analgesic activity in sc dosed Swiss-Webster mouse after 30 mins
Format: functional
Conditions: 0.5 h
Write the number in mg/kg without appending the unit.

Form field: reported ED50 of `CCOC(=O)/C=C/C(=O)Nc1ccc(CCN2CC[C@]34CCCC[C@H]3[C@H]2Cc2ccc(O)cc24)cc1`
1.2

What does the data say about its ED50? Entry: `CCOC(=O)/C=C/C(=O)Nc1cccc(CCN2CC[C@]34CCCC[C@H]3[C@H]2Cc2ccc(O)cc24)c1`
5.6

---

Tested on: Mus musculus
Assay: Analgesic activity in sc dosed Swiss-Webster mouse after 30 mins
Assay type: functional
Details: 0.5 h
endpoint_label: ED50 (mg/kg)
Give just the numeric value; mg/kg need not be written.

O=C1C=CC(=O)N1c1cccc(CCN2CC[C@]34CCCC[C@H]3[C@H]2Cc2ccc(O)cc24)c1    11.4

Now look at this entry.
Return reported ED50; argument: `CN1CC[C@]23c4c5ccc(O)c4O[C@H]2[C@@H](O)C=C[C@H]3[C@H]1C5.CN1CC[C@]23c4c5ccc(O)c4O[C@H]2[C@@H](O)C=C[C@H]3[C@H]1C5.O=S(=O)(O)O`
4.9

---

System: Mus musculus
Test: Analgesic activity in sc dosed Swiss-Webster mouse after 30 mins
Format: functional
Details: 0.5 h
endpoint_label: log10(ED50) (log10 of the value in mg/kg)
Annotation: log10 of ED50, mg/kg basis.

Check out these entries, answers already filled in.
CCOC(=O)/C=C\C(=O)Nc1cccc(CCN2CC[C@]34CCCC[C@H]3[C@H]2Cc2ccc(O)cc24)c1    0.36
O=C(CBr)Nc1ccccc1CCN1CC[C@]23CCCC[C@H]2[C@H]1Cc1ccc(O)cc13    1.20
CC(=O)Oc1ccc2c(c1)[C@@]13CCCC[C@H]1[C@@H](C2)N(CCCc1ccccc1N1C(=O)C=CC1=O)CC3    1.68
CCOC(=O)CCC(=O)Nc1cccc(CCCN2CC[C@]34CCCC[C@H]3[C@H]2Cc2ccc(O)cc24)c1    1.89
CC(=O)Oc1ccc2c(c1)[C@@]13CCCC[C@H]1[C@@H](C2)N(CCc1ccccc1N1C(=O)C=CC1=O)CC3    1.07

# input for lookup
State the recorded log10(ED50) for this entry: `O=C1C=CC(=O)N1c1ccc(CCN2CC[C@]34CCCC[C@H]3[C@H]2Cc2ccc(O)cc24)cc1`
0.04

---

Here the recorded Time is given for each entry.
Test system: Mus musculus
Assay: Analgesic activity in sc dosed Swiss-Webster mouse time of peak effect
Assay type: functional
Dear colleague, please return just the value in min, with no unit written.

CN1CC[C@]23c4c5ccc(O)c4O[C@H]2[C@@H](O)C=C[C@H]3[C@H]1C5.CN1CC[C@]23c4c5ccc(O)c4O[C@H]2[C@@H](O)C=C[C@H]3[C@H]1C5.O=S(=O)(O)O    30

Requested field: Time. Item: `CCOC(=O)/C=C/C(=O)Nc1ccccc1CCCN1CC[C@]23CCCC[C@H]2[C@H]1Cc1ccc(O)cc13`
15

What does the record list as Time for `CCOC(=O)CCC(=O)Nc1cccc(CCN2CC[C@]34CCCC[C@H]3[C@H]2Cc2ccc(O)cc24)c1` ?
60

Fill blank: measured Time of the molecule `O=C(CBr)Nc1cccc(CCN2CC[C@]34CCCC[C@H]3[C@H]2Cc2ccc(O)cc24)c1` is ____.
30

Tell me the measured Time of `CC(=O)Oc1ccc2c(c1)[C@@]13CCCC[C@H]1[C@@H](C2)N(CCc1ccc(N2C(=O)C=CC2=O)cc1)CC3` , please.
30

Tell me the measured Time of `CCOC(=O)/C=C/C(=O)Nc1cccc(CCCN2CC[C@]34CCCC[C@H]3[C@H]2Cc2ccc(O)cc24)c1` , please.
30

---

Listed next: entries and their corresponding ED50.
System: Mus musculus
Experiment: Analgesic activity in sc dosed Swiss-Webster mouse after 30 mins
Type: functional
Conditions: 0.5 h

Reference set, count: 2
CCOC(=O)/C=C\C(=O)Nc1cccc(CCCN2CC[C@]34CCCC[C@H]3[C@H]2Cc2ccc(O)cc24)c1    > 100 mg/kg
CCOC(=O)/C=C/C(=O)Nc1ccccc1CCN1CC[C@]23CCCC[C@H]2[C@H]1Cc1ccc(O)cc13    > 150 mg/kg

Please tell me: ED50 of `CCOC(=O)CCC(=O)Nc1ccccc1CCN1CC[C@]23CCCC[C@H]2[C@H]1Cc1ccc(O)cc13` , system Mus musculus?
> 100 mg/kg

---

Measured ED50 of individual entries
System: Mus musculus
Test: Analgesic activity in sc dosed Swiss-Webster mouse after 30 mins
Type: functional
Conditions: 0.5 h
Kindly answer with a numeric value in mg/kg, unit omitted.

// returns reported ED50 for input `O=C(CBr)Nc1cccc(CCN2CC[C@]34CCCC[C@H]3[C@H]2Cc2ccc(O)cc24)c1`
0.58

# query: ED50 of entry `CCOC(=O)/C=C/C(=O)Nc1ccccc1CCCN1CC[C@]23CCCC[C@H]2[C@H]1Cc1ccc(O)cc13`
84

Given the entry Br.CC1C2Cc3ccc(O)cc3C1(C)CCN2CCc1ccccc1 (stereo not drawn) [PHENAZOCINE HYDROBROMIDE] , report its measured ED50.
0.53

For the molecule shown here, `CCOC(=O)/C=C/C(=O)Nc1ccc(CCCN2CC[C@]34CCCC[C@H]3[C@H]2Cc2ccc(O)cc24)cc1` , give the reported ED50.
28.4

Entry `CC(=O)Oc1ccc2c(c1)[C@@]13CCCC[C@H]1[C@@H](C2)N(CCc1ccc(N2C(=O)C=CC2=O)cc1)CC3` has what ED50?
0.59

// query ED50 value for entry `CCOC(=O)CCC(=O)Nc1ccc(CCCN2CC[C@]34CCCC[C@H]3[C@H]2Cc2ccc(O)cc24)cc1`
78.2
